IC50, UniProt:P45983: measured values
Sequence (P45983 other isoform, or with tags, fused parts or gaps isoform P45983-2, species assumed): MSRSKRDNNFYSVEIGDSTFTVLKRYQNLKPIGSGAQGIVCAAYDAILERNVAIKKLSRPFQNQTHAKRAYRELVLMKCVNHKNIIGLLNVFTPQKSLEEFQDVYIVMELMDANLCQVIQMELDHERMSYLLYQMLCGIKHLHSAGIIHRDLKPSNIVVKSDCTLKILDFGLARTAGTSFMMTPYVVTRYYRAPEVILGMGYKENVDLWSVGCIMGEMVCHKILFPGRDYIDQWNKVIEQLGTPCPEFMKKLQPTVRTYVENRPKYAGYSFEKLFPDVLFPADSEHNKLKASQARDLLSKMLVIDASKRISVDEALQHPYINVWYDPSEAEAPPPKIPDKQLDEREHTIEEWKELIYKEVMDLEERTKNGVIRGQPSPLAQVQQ

Using the record for Cc1cnc(-c2sccc2NC(=O)Cc2cccc3cnccc23)s1 , state its measured IC50.
100 to 10000 nM

* * *

System: JNK2 (Homo sapiens (Human)) | Read-out: IC50
Sequence (P45984 whole entry, species assumed): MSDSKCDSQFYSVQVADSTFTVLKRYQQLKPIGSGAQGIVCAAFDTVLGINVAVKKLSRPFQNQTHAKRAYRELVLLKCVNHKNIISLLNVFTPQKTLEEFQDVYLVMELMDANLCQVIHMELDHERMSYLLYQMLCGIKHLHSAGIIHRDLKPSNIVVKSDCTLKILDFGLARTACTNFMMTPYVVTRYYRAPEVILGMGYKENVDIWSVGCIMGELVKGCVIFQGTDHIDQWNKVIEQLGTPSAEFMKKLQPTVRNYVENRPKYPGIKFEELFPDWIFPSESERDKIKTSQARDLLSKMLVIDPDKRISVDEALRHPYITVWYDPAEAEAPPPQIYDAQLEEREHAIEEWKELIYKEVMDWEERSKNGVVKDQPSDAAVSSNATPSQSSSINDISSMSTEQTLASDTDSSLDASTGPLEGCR

Report IC50 for Cn1cnc(-c2c(Cl)csc2NC(=O)Cn2c(=O)ccn3nc(C(F)(F)F)cc23)n1
< 0.1 µM

New cases:
Quote IC50 reported for O=C(Cn1c(=O)ccc2cc(Br)ccc21)Nc1scc(Br)c1-c1nc[nH]n1 please.
< 0.1 µM

For Cc1cnc(-c2sccc2NC(=O)Cc2cccc3cnccc23)s1 , write its IC50.
0.1 to 10 µM

Indicate its recorded IC50; the compound in question is COc1nc(-c2sccc2NC(=O)Cc2cccc3cnccc23)cs1
> 10 µM

Consider the compound O=C(Cc1ccc2ccc(C(F)(F)F)nc2c1)Nc1scc(Br)c1-c1nc[nH]n1 . State its measured IC50.
0.1 to 10 µM

Given O=C(CN1C(=O)C(F)(F)c2ccccc21)Nc1scc(Br)c1-c1nnc[nH]1 , respond with its IC50.
0.1 to 10 µM
